# EXPERIMENT: Rat plasma metabolite profiles after single oral 5 mg/kg [14C]DCDQ
# Assay type: in vivo, Sprague-Dawley rats
# TEST SETTINGS: female, 2 hr, mean n = 3
Marks after values point to notes of the source that are not given here.
PROPERTY MEASURED: Chromatographic distribution of radioactivity in rat plasma

The following molecules have reported results that may help.
> print(dat)
                                   molecule  value.measured
1  O=S(=O)(O)N1CCN2CC3=CCC=C3c3cccc(c32)C1 [Metabolite M14, di-dehydro DCDQ sulfamate]         4.0^d %
2  O=C1CC[C@@H]2c3cccc4c3N(CCNC4)C[C@H]12 [Metabolite M7, 17-keto DCDQ]         5.4^d %
3  O=S(=O)(O)N1CCN2C[C@@H]3CCC[C@@H]3c3cccc(c32)C1 [Metabolite M12, DCDQ sulfamate]         5.2^e %
4  OC1[C@@H]2CCC[C@@H]2c2cccc3c2N1CCNC3 (some centres unmarked) [Metabolite M2, hydroxy DCDQ]             BQL

Which Chromatographic distribution of radioactivity in rat plasma is listed for OC1CN2C[C@@H]3CCC[C@@H]3c3cccc(c32)CN1 (some centres unmarked) [Metabolite M1, hydroxy DCDQ] ?
2.0^d %
